# assaySystem: T1, Hse1, P38753
# T1 sequence (P38753 208-285, looked up): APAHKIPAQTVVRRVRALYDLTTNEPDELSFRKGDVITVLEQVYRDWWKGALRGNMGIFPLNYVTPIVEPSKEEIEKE
# assayInfo: SPOT array
# assaySetup: median of control spots 1727
measureName: SPOT intensity
Returns: the value as a bare number; no unit string appended.

Prompt: Which SPOT intensity is reported for this binder? GKLKHIPRRPYEIER
Response: 1

Prompt: For VFQFQMPTTPISTKM then?
Response: 0

Prompt: Subsequent entry: NFLRLLIGLPSQNEL
Response: 10

Prompt: Param item: IFLRISINFPLNYPN
Response: 143

Prompt: Now consider NFFRKKLGIPRKLKR .
Response: 130

Prompt: Next record, please: KKIRLIFTYPSTVGR
Response: 4

Prompt: QQEQNTPPLPPKPKS ?
Response: 184

Prompt: Follow-up item: YVRRRPRVRLEPLLS
Response: 54

Prompt: Next record, please: SRYRRPLTLLLLKPF
Response: 15

Prompt: Entry PVLPPPRSPNRPTLS please
Response: 0

Prompt: Input RRRIAYPFYPFKKLG
Response: 13

Prompt: Now consider PPIPIVPSSPAPPLP .
Response: 0

Prompt: Moving on to the next binder: HVRRSILALPLGVLL
Response: 0

Prompt: Would you mind doing QNTPPLPPKPKSPHL as well?
Response: 634

Prompt: Param item: TTNRGPPPLPPRANV
Response: 750

Prompt: Same question, APPPPPRRATPEKKP this time
Response: 0

Prompt: Note, next up: AAAPKHAPPPVPNET
Response: 13

Prompt: Moving on to SAPDIPPRSPNRNAH
Response: 0

Prompt: Can you check AATTSTPPLPRRRAT next?
Response: 2

Prompt: Similarly, NPNRRAPRRPLSTQH ?
Response: 113

Prompt: Input STPQTMRQAPKRPDA
Response: 0

Prompt: Same thing, different binder: LPPPPPPPPPPPLPQ
Response: 0

Prompt: # repeat for RTIRKLPLMSLSEYF
Response: 2

Prompt: Another: RPPRPPPKPLHLRTE
Response: 539

Prompt: NRARYLPQNPDIIAG , same question.
Response: 3

Prompt: Also need KRRAPPPVPKKPSSR , thanks.
Response: 412

Prompt: Would you kindly repeat that for MFLISPPASPPPEFD ?
Response: 0

Prompt: What do you get for LYEAMPPTLPHRDWK ?
Response: 2

Prompt: What about HRRRRVFSIPSLKSI ?
Response: 19

Prompt: Also need AERNYAPRLPRRETS , thanks.
Response: 4
